- System: MDA-MB-435
- PROTOCOL: NCI tumour cell line growth inhibition, 48 h
MEASURE: TGI

> print(dat)
                                 compound  measure  value.reported
1      O=C(Nc1sc2c(c1C(=O)O)CCCC2)c1ccco1      TGI         > 50 µM
2  NCCO/C=C/C(N)C(=O)O (stereo not given)      TGI        > 100 µM

Query :: Any idea what TGI was measured for N[C@@H](CCC(=O)NC(Cc1ccccc1)C(=O)NCP(=O)(O)O)C(=O)O (stereo not given in full) ?
Result :: > 100 µM

Query :: Param item: `O=C(Nc1ccccc1)N1CCN(C(=O)Nc2ccccc2)C1=S`
Result :: > 100 µM

Query :: Param item: [N-]=[N+]=CC(=O)CCC(N)C(=O)O (stereo not given)
Result :: > 250 µM

Query :: Param item: `O=[N+]([O-])c1ccc(-n2nc3ccc4nonc4c3n2)cc1`
Result :: > 100 µM

Query :: Param item: COC(=O)[C@]1(c2cc3ccccc3n2S(=O)(=O)c2ccccc2)CC2CN(C(=O)OCc3ccccc3)C1C1OC(C)(C)OC21 (stereo not given in full)
Result :: > 100 µM

Query :: Param item: O=C(O)C(Cc1ccccc1)NCc1c(O)ccc2c(-c3ccccc3)cc(=O)oc12 (stereo not given)
Result :: > 100 µM

Query :: Param item: `O=c1c(Cc2ccc3c(c2)OCO3)nnc2sc(-c3cc(F)c(Cl)cc3Cl)nn12`
Result :: > 100 µM

Query :: Param item: `O=C1/C(=C/c2ccccc2)Oc2cc(O)ccc21`
Result :: > 100 µM
